- TESTED ON: T1, human tissue factor (TF) on MDA-MB-231, NCI-H358 and HCT116 cells (human, UniProt P13726 33-295)
- T1 construct: whole, on cells; also called TF antigen; CD142
- PROTOCOL SUMMARY: flow cytometry on MDA-MB-231 cells
Recorded EC50, one value per entry.
MEASUREMENT NAME: EC50 (nM)

1) hu10H10-58 (antibody, V domains shown, H2+L6; Full-length IgG) VH: EVQLVQSGSELKKPGASVKVSCKASGYTFITYWIEWVRQRPGQGLEWMGDILPGSGSTNYNENFKGRAVFSADTSVSTAYLQISSLKAEDTAVYYCARSGYYGNSGFAYWGQGTLVTVSS VL: DIQMTQSPSSLSASVGDRVTITCKSSQSLLSSSNQKNYLTWYQQKPGKAPKLLIYWASTREEGVPSRFSGSGSGTDFTLTISSLQPEDFATYYCQNDYTYPLTFGQGTKLEIK; 1.43
2) hu67-4 (antibody, human IgG1, kappa, V domains shown) VH: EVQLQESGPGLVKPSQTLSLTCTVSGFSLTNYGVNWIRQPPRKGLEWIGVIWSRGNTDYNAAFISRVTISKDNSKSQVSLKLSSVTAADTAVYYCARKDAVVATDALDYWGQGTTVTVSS VL: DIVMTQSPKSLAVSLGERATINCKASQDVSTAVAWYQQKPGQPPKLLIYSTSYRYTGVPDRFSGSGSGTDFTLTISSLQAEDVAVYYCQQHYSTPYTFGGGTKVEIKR; 18
